Measured TGI, listed per entry for reference.
# Tested on: HOP-62 NSCLC
# ASSAY DETAILS: NCI tumour cell line growth inhibition, 48 h

MOLECULE: O=C(N/C(=C\c1ccc(/C=C(\NC(=O)c2ccccc2)c2nc3c(O)nc(S)nc3[nH]2)cc1)c1nc2c(O)nc(S)nc2[nH]1)c1ccccc1
TGI: > 100 µM
//
MOLECULE: CCOCCOCCOCCOCCOCCOCCOCCOCCOCCO (tested in a mixture with another compound)
TGI: 4.45 µM
//
MOLECULE: COc1cccc(CCNc2c(C#N)c3n(c4ccccc4[n+]3C)c3ncccc23)c1
TGI: 43.8 µM
//
MOLECULE: CN1CCN(c2nc(N)c(Br)c(Cl)n2)CC1
TGI: > 100 µM

Source of measurements: PubChem BioAssay (NCI)
